Listed here: items and their measured EC50.
# System: human breast cancer cell line T-47D
# Assay overview: Caspase cascade activation (DEVD-R110 fluorogenic substrate) in T-47D cells
# Format: cell-based
# Measurement conditions: Homo sapiens, T47D, 24 h, T47D cells, 24 h; read-out: Caspase activation Potency EC50 T47D (24 h)
Structures can show the parent of a compound that is named as a salt.
# unit: nM | format: bare number

See these solved cases before continuing.
# Molecule, Result type, Assay result
records = [
    ("COc1cc(Nc2nc(C)nc3ccsc23)cc(OC)c1 [Example 54]", "EC50", 27),
    ("COc1ccc(OC)c(Nc2nc(C)nc3ccsc23)c1 [Example 1]", "EC50", 65),
]

Okay, next one:
For record COc1ccc(Nc2ncnc3ccsc23)cc1OC [Example 14, hydrochloride] the listed EC50 is 1810
